Molecular target: 14-3-3γ (Homo sapiens)
Construct: made in house; host or cells: E. coli NiCo21 (DE3)
Assay: Isothermal titration calorimetry (ITC) of 14-3-3 binding to peptide
Conditions: Table S6; ITC, 25 °C; run 2
Where a SMILES comes first, the peptide text is derived from it. [ ]: non-standard residue; d: D form. ξ: configuration not given here. Phe(4-NO2) = N[C@@H](Cc1ccc([N+](=O)[O-])cc1)C(=O)O; ξAla(4-thiazolyl) = NC(Cc1cscn1)C(=O)O; pS = N[C@@H](COP(=O)(O)O)C(=O)O; β3hS = N[C@@H](CO)CC(=O)O; Nva = CCC[C@H](N)C(=O)O; ξβ3hS = NC(CO)CC(=O)O; βAla = NCCC(=O)O
metric: ΔG

Please review the following examples before continuing.
CCC[C@H](NC(=O)[C@H](N)CCCCN)C(=O)N[C@@H](Cc1ccc([N+](=O)[O-])cc1)C(=O)NC(Cc1cscn1)C(=O)N[C@@H](COP(=O)(O)O)C(=O)N[C@@H](Cc1ccc([N+](=O)[O-])cc1)C(=O)NC(CO)CC(=O)NCCC(=O)N[C@@H](Cc1ccc([N+](=O)[O-])cc1)C(=O)N[C@@H](CCCCN)C(N)=O (stereo partly drawn) [compound 1] (H-[dK][Nva][Phe(4-NO2)][ξAla(4-thiazolyl)][pS][Phe(4-NO2)][ξβ3hS][βAla][Phe(4-NO2)]K-NH2) ... -10,02 kcal mol^-1
CCC[C@H](NC(=O)[C@H](N)CCCCN)C(=O)N[C@@H](Cc1ccc([N+](=O)[O-])cc1)C(=O)NC(Cc1cscn1)C(=O)N[C@@H](COP(=O)(O)O)C(=O)N[C@@H](Cc1ccc([N+](=O)[O-])cc1)C(=O)N[C@@H](CO)CC(=O)NCCC(=O)N[C@@H](C)C(=O)N[C@@H](CCCCN)C(N)=O (stereo partly drawn) [5c] (H-[dK][Nva][Phe(4-NO2)][ξAla(4-thiazolyl)][pS][Phe(4-NO2)][β3hS][βAla]AK-NH2; N-terminus and C-terminus assumed) ... -7,317 kcal mol^-1

Now take the following molecule into account.
Suppose we examine the molecule CCC[C@H](NC(=O)[C@H](N)CCCCN)C(=O)N[C@@H](Cc1ccc([N+](=O)[O-])cc1)C(=O)NC(Cc1cscn1)C(=O)N[C@@H](COP(=O)(O)O)C(=O)N[C@@H](Cc1ccc([N+](=O)[O-])cc1)C(=O)N[C@@H](CO)CC(=O)NCCC(=O)N[C@@H](Cc1ccccc1)C(=O)N[C@@H](CCCCN)C(N)=O (stereo partly drawn) [5b] (H-[dK][Nva][Phe(4-NO2)][ξAla(4-thiazolyl)][pS][Phe(4-NO2)][β3hS][βAla]FK-NH2; N-terminus and C-terminus assumed) ; what ΔG value has been reported?
-7,821 kcal mol^-1

###

Biological target: 14-3-3γ (Homo sapiens)
Construct: made in house; host or cells: E. coli NiCo21 (DE3)
Assay: Isothermal titration calorimetry (ITC) of 14-3-3 binding to peptide
Conditions: Table S6 (unit given in Fig. 4 legend); ITC, 25 °C; average of two runs
Where a SMILES comes first, the peptide text is derived from it. [ ]: non-standard residue; d: D form. ξ: configuration not given here. Phe(4-NO2) = N[C@@H](Cc1ccc([N+](=O)[O-])cc1)C(=O)O; ξAla(4-thiazolyl) = NC(Cc1cscn1)C(=O)O; pS = N[C@@H](COP(=O)(O)O)C(=O)O; β3hS = N[C@@H](CO)CC(=O)O; Nva = CCC[C@H](N)C(=O)O; βAla = NCCC(=O)O
metric: ΔH

Suppose we examine the molecule CCC[C@H](NC(=O)[C@H](N)CCCCN)C(=O)N[C@@H](Cc1ccc([N+](=O)[O-])cc1)C(=O)NC(Cc1cscn1)C(=O)N[C@@H](COP(=O)(O)O)C(=O)N[C@@H](C)C(=O)N[C@@H](CO)CC(=O)NCCC(=O)N[C@@H](Cc1ccc([N+](=O)[O-])cc1)C(=O)N[C@@H](CCCCN)C(N)=O (stereo partly drawn) [4c] (H-[dK][Nva][Phe(4-NO2)][ξAla(4-thiazolyl)][pS]A[β3hS][βAla][Phe(4-NO2)]K-NH2; N-terminus and C-terminus assumed) ; what ΔH value has been reported?
-4,81 kcal mol^-1

###

Target: 14-3-3γ (Homo sapiens)
Construct: made in house; host or cells: E. coli NiCo21 (DE3)
Test: Fluorescence anisotropy (FA) binary binding study: 14-3-3 titrated to fluorescein-labelled peptide
Details: Table S3; from FA KD; replicate 3
Where a SMILES comes first, the peptide text is derived from it. [ ]: non-standard residue; d: D form. The star is where a group is joined. ξ: configuration not given here. FITC = O=C1OC2(c3ccc(O)cc3Oc3cc(O)ccc32)c2ccc(NC(=S)*)cc21; Phe(4-NO2) = N[C@@H](Cc1ccc([N+](=O)[O-])cc1)C(=O)O; ξAla(4-thiazolyl) = NC(Cc1cscn1)C(=O)O; pS = N[C@@H](COP(=O)(O)O)C(=O)O; Nva = CCC[C@H](N)C(=O)O; AEA = NCCOCC(=O)O
metric: ΔG

Suppose we examine the compound CCC[C@H](NC(=O)[C@@H](CCCCN)NC(=O)COCCNC(=S)Nc1ccc2c(c1)C(=O)OC21c2ccc(O)cc2Oc2cc(O)ccc21)C(=O)N[C@@H](Cc1ccc([N+](=O)[O-])cc1)C(=O)NC(Cc1cscn1)C(=O)N[C@@H](COP(=O)(O)O)C(N)=O (stereo partly shown) [2i] ({FITC-AEA}-[dK][Nva][Phe(4-NO2)][ξAla(4-thiazolyl)][pS]-NH2) ; what ΔG value has been reported?
-6,18 kcal/mol

###

Quick list: ΔΔG to 1 per entry.
Biological target: 14-3-3γ (Homo sapiens, UniProt P61981)
Construct: made in house; host or cells: E. coli NiCo21 (DE3)
Sequence (P61981 whole entry): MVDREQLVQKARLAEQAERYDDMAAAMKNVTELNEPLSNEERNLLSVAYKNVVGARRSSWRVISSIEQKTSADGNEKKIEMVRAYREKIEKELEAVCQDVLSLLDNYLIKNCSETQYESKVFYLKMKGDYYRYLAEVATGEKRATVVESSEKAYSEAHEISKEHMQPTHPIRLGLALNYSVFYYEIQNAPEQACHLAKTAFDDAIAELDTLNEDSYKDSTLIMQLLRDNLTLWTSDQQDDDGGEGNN
Experiment: Isothermal titration calorimetry (ITC) of 14-3-3 binding to peptide
Details: Table S5; ΔG minus ΔG of peptide 1, ITC; first unlabelled line (replicate 1)
Where a SMILES comes first, the peptide text is derived from it. [ ]: non-standard residue; d: D form. ξ: configuration not given here. Phe(4-NO2) = N[C@@H](Cc1ccc([N+](=O)[O-])cc1)C(=O)O; ξAla(4-thiazolyl) = NC(Cc1cscn1)C(=O)O; pS = N[C@@H](COP(=O)(O)O)C(=O)O; β3hS = N[C@@H](CO)CC(=O)O; Nva = CCC[C@H](N)C(=O)O; βAla = NCCC(=O)O
Report the value in kcal/mol with no unit label.

Please review the following examples before continuing.
CCC[C@H](NC(=O)[C@H](N)CCCCN)C(=O)N[C@@H](Cc1ccc([N+](=O)[O-])cc1)C(=O)NC(Cc1cscn1)C(=O)N[C@@H](COP(=O)(O)O)C(=O)N[C@@H](Cc1ccccc1)C(=O)N[C@@H](CO)CC(=O)NCCC(=O)N[C@@H](Cc1ccc([N+](=O)[O-])cc1)C(=O)N[C@@H](CCCCN)C(N)=O (stereo partly drawn) [4b] (H-[dK][Nva][Phe(4-NO2)][ξAla(4-thiazolyl)][pS]F[β3hS][βAla][Phe(4-NO2)]K-NH2; N-terminus and C-terminus assumed) ... -0.3
CCC[C@H](NC(=O)[C@H](N)CCCCN)C(=O)N[C@@H](Cc1ccc([N+](=O)[O-])cc1)C(=O)NC(Cc1cscn1)C(=O)N[C@@H](COP(=O)(O)O)C(=O)N[C@@H](Cc1ccc([N+](=O)[O-])cc1)C(=O)N[C@@H](CO)CC(=O)NCCC(=O)N[C@@H](Cc1ccccc1)C(=O)N[C@@H](CCCCN)C(N)=O (stereo partly drawn) [5b] (H-[dK][Nva][Phe(4-NO2)][ξAla(4-thiazolyl)][pS][Phe(4-NO2)][β3hS][βAla]FK-NH2; N-terminus and C-terminus assumed) ... 2.1
CCC[C@H](NC(=O)[C@H](N)CCCCN)C(=O)N[C@@H](Cc1ccc([N+](=O)[O-])cc1)C(=O)NC(Cc1cscn1)C(=O)N[C@@H](COP(=O)(O)O)C(=O)N[C@@H](Cc1ccc(O)cc1)C(=O)N[C@@H](CO)CC(=O)NCCC(=O)N[C@@H](Cc1ccc([N+](=O)[O-])cc1)C(=O)N[C@@H](CCCCN)C(N)=O (stereo partly drawn) [4a] (H-[dK][Nva][Phe(4-NO2)][ξAla(4-thiazolyl)][pS]Y[β3hS][βAla][Phe(4-NO2)]K-NH2; N-terminus and C-terminus assumed) ... 0.6
CCC[C@H](NC(=O)[C@H](N)CCCCN)C(=O)N[C@@H](Cc1ccc([N+](=O)[O-])cc1)C(=O)NC(Cc1cscn1)C(=O)N[C@@H](COP(=O)(O)O)C(=O)N[C@@H](Cc1ccc([N+](=O)[O-])cc1)C(=O)N[C@@H](CO)CC(=O)NCCC(=O)N[C@@H](C)C(=O)N[C@@H](CCCCN)C(N)=O (stereo partly drawn) [5c] (H-[dK][Nva][Phe(4-NO2)][ξAla(4-thiazolyl)][pS][Phe(4-NO2)][β3hS][βAla]AK-NH2; N-terminus and C-terminus assumed) ... 2.6

Suppose we examine the compound CCC[C@H](NC(=O)[C@H](N)CCCCN)C(=O)N[C@@H](Cc1ccc([N+](=O)[O-])cc1)C(=O)NC(Cc1cscn1)C(=O)N[C@@H](COP(=O)(O)O)C(=O)N[C@@H](Cc1ccc([N+](=O)[O-])cc1)C(=O)N[C@@H](CO)CC(=O)NCCC(=O)N[C@@H](Cc1ccc(O)cc1)C(=O)N[C@@H](CCCCN)C(N)=O (stereo partly drawn) [5a] (H-[dK][Nva][Phe(4-NO2)][ξAla(4-thiazolyl)][pS][Phe(4-NO2)][β3hS][βAla]YK-NH2; N-terminus and C-terminus assumed) ; what ΔΔG to 1 value has been reported?
2.1

Suppose we examine the compound CCC[C@H](NC(=O)[C@H](N)CCCCN)C(=O)N[C@@H](Cc1ccc([N+](=O)[O-])cc1)C(=O)NC(Cc1cscn1)C(=O)N[C@@H](COP(=O)(O)O)C(=O)N[C@@H](C)C(=O)N[C@@H](CO)CC(=O)NCCC(=O)N[C@@H](Cc1ccc([N+](=O)[O-])cc1)C(=O)N[C@@H](CCCCN)C(N)=O (stereo partly drawn) [4c] (H-[dK][Nva][Phe(4-NO2)][ξAla(4-thiazolyl)][pS]A[β3hS][βAla][Phe(4-NO2)]K-NH2; N-terminus and C-terminus assumed) ; what ΔΔG to 1 value has been reported?
1.6
